B1: glmS ribozyme (parent)
chain: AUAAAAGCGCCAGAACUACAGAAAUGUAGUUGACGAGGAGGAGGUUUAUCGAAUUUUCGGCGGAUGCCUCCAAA

# Variants of: B1
# Measurement protocol: self-cleavage kobs at 640 uM GlcN6P; higher = faster cleavage; RNA array
# Details: with glucosamine-6-phosphate
This sample holds only a part of the variants without activity.
Measured self-cleavage kobs at 640 uM GlcN6P, listed per entry for reference.

# Var, Readout relation, self-cleavage kobs at 640 uM GlcN6P, s⁻¹
measured = [
    ("C10A C68G", "=", "6.2e-05"),
    ("C50G U57G G66U C70G", "=", 0.000982),
    ("G7A C11A A52U C70A", "<", "1e-05"),
    ("A42U U46G", "=", "2.81e-05"),
    ("A39U G66C C67A", "=", 0.00015),
    ("A15U U55C", "=", 0.00136),
    ("C34G C50U", "<", "1e-05"),
    ("C16G C67G", "=", "9.56e-05"),
    ("C16A A53C", "=", "6.66e-05"),
    ("A6G U30G G43C G60U C71G", "<", "1e-05"),
    ("G35C G40C A52C", "<", "1e-05"),
]
